Please provide measured pKd for the entries that follow.
measured-on: hPIV-N51 (139-189) (Human parainfluenza 3 virus, UniProt P06828)
Construct: hPIV-N51 (139-189)
Sequence (P06828 139-189): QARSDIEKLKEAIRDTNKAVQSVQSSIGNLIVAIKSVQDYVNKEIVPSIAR
assay: SPR affinity to hPIV-N51 coupled on CM5 chip
Assay type: binding
The star is where a group is joined. Succinyl(4-O-cholesteryl) = CC(C)CCC[C@@H](C)[C@H]1CC[C@H]2[C@@H]3CC=C4C[C@@H](OC(=O)CCC(=O)*)CC[C@]4(C)[C@H]3CC[C@]12C
Give bare numbers, as −log10 of the molar value.

Recorded pKd, per entry:
Ac-LVKKIDEFDASISQVNEKINQSLEEIRKSDELLHNVGSGSGK(Succinyl(4-O-cholesteryl))-NH2 [Compound 29]    5.76
Ac-WDEFDASISQVNEKINQSLEEIRKSDELLHNVNALEAAAKK(Succinyl(4-O-cholesteryl))-NH2 [Compound 38]    4.61
Ac-WDEFDASISQVNEKINQSLEEIRKSDELLHNVNAGLGSGSGK(Succinyl(4-O-cholesteryl))-NH2 [Compound 27]    6.09

Now for a further substance.
input: Notebook entry, hPIV-N51 (139-189) (Human parainfluenza 3 virus, UniProt P06828) assay: pKd of Ac-FDEEISQVNEKINQSLAFIRKSDELLHNVNAGKSTTEAAAKK(Succinyl(4-O-cholesteryl))-NH2 [Compound 26] = ?
output: 5.59
